Kindly state pKd for each of the entries shown.
- Experimental system: GOPC, Q9HD26
- Assay explanation: holdup assay
- Set-up: key: below the threshold = too weak to quantify, mostly under pKd 3.1 to 4
- Details: plain residues with an end cap or a label only (N-terminal biotin on a linker: ttds)
# output: bare number, no unit

q: Please give the measured pKd for this binder: IYVPEAQTRL [DLGAP4, Q9Y2H0]
a: 4.21

q: Repeat for the following binder: PKTPPTDTSV [KIR3DL3, Q8N743]
a: 3.5

q: Repeat for the following binder: GQDSREETQL [KCNT2, Q6UVM3]
a: 4.01

q: Repeat for the following binder: TVASEKESVM [SLC1A5, Q15758]
a: 3.76

q: Repeat for the following binder: IDNDTESTAL [ARHGAP17, Q68EM7]
a: 3.86

q: Repeat for the following binder: STLTIFETAL [ABCC4, O15439]
a: 4.52
